- Measured on: T1, human serum albumin (human, UniProt P02768 25-609)
- T1 construct: Bought recombinant product; also called HSA; Albucult
- Assay explanation: SPR Biacore2000, HSA immobilized on CM-5, polypeptide as analyte, 1:1 Langmuir fit, relative values
I'd appreciate it if you could supply kon values for the items below.
# value in M⁻¹ s⁻¹; strip the unit string

Req: If you can, please state the reported kon value of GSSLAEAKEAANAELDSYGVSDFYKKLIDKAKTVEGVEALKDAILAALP (designed binder, Inventive variant; 46 residues with an N-terminal GSS extension; R23K against PEP07843 (position counted on the 46-mer without GSS); Expressed in E. coli; also called ABD variant; R23K variant of PEP07843) [PEP12380] .
Resp: 3.48e+06

Req: # get_value(readout='kon', item= GSSLAEAKEAANAELDSYGVSDFYKNLIDKAKTVEGVEALKDAILAALP (designed binder, R23N against PEP07843 (position counted on the 46-mer without GSS); Control polypeptide, expressed in E. coli; also called ABD variant; R23N variant of PEP07843) [PEP12379] )
Resp: 1.7e+06

Req: Entry under review: GSSLAEAKEAANAELDSYGVSDFYKSLIDKAKTVEGVEALKDAILAALP (designed binder, Control polypeptide; 46 residues with an N-terminal GSS extension; R23S against PEP07843 (position counted on the 46-mer without GSS); Expressed in E. coli; also called ABD variant; R23S variant of PEP07843) [PEP12381] . Reported kon?
Resp: 1.83e+06

Req: What value of kon has been recorded for this entry: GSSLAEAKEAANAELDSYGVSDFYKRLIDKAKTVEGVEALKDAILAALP (designed binder, single Arg at position 23 of the 46-mer; GSS extension at the N-terminus; also called ABD variant; control) [PEP07843]
Resp: 4.49e+06
